From: patent US20080146500A1

# ASSAY METHOD TEXT: Pharmacokinetic profiles of PEGylated peptides, plasma peptide by RIA
# Format: in vivo, Fisher 344 rats
# CONDITION LABEL: Fisher 344 rats, 100 μg compound/kg, plasma RIA, mean N = 3
MEASURED METRIC: Cmax (ng/mL)
Write it as a number; the unit ng/mL goes unstated.

A selection of reference data follows.
SUBSTANCE	NUMERIC READOUT
C6-HDAVFTEQY(OMe)TOrnLRAibQVAAAibOrnYLQSIOrnOrnGGPSSGAPPPC(PEG60K)-NH2 [Agonist P404]	133
C6-HSDAVFTDNYThRLRAibQVAAAibKYLQSIhRNhRhRYGGPSSGAPPPC(PEG40K)-NH2 (HSDAVFTDNYTXLRXQVAAXKYLQSIXNXXYGGPSSGAPPPC; non-natural residues) [Agonist P340]	44
C6-HSDAVFTEQY(OMe)TOrnLRAibQVAK(CO(CH2)2SPEG40K)AibOrnYLQSIOrnOrnGGPSSGAPPPS-NH2 (HSDAVFTEQYTXLRXQVAXXXYLQSIXXGGPSSGAPPPS; non-natural residues) [Agonist P432]	392

Please turn your attention to the following entry.
### Prompt Using known records, supply Cmax for C6-HSDAVFTDNYTOrnLRAibQVAAAibKYLQC(PEG40K)IOrnNOrnGGPSSGAPPPS (HSDAVFTDNYTXLRXQVAAXKYLQCIXNXGGPSSGAPPPS; non-natural residues) [Agonist P373]
### Response 240

###

The substances listed here are annotated with their EC50.
# TARGET ENTITY: rat VPAC1 receptor (Rattus norvegicus, UniProt P30083)
# Construct: expressed in transfected cells; host or cells: CHO-PO cells, transient
# Sequence (P30083 31-459): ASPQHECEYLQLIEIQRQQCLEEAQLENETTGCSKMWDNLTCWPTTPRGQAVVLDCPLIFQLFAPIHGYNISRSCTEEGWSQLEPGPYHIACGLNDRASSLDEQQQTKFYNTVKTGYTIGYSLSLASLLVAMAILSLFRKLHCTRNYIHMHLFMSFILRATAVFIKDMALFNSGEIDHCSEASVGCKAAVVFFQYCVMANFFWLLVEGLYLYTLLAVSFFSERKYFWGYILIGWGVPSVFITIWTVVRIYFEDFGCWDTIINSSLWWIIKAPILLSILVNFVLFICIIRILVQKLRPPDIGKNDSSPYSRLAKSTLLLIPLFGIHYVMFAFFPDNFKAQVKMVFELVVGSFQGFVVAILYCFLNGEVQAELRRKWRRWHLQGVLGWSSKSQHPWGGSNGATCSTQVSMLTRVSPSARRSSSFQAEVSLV
# ASSAY METHOD TEXT: Rat VPAC1 in vitro potency (cAMP generation, DiscoveRx) in transiently transfected CHO-PO cells
# Assay type: cell-based
# CONDITION LABEL: CHO-PO cells transiently transfected with rat VPAC1; read-out: rVPAC1 in vitro potency (cAMP generation) EC50
Ends that are not written are not given here.
Entry rule: numbers only, all in µM.

SUBSTANCE	TARGET ENTITY	MEASURED METRIC	UNIT ANNOTATION	NUMERIC READOUT
P137: PEGylated material obtained from P120 and methoxy-PEG2-MAL-40K (HSDAVFTDNYTRLRKQVAAKKYLQSIKNKRYGGPSSGAPPPC; also: PEGylated with methoxy-PEG2-MAL-40K, site not given here) [Agonist P137]	rat VPAC1 receptor (Rattus norvegicus, UniProt P30083)	EC50	µM	0.0297
C6-HDAVFTEQY(OMe)TOrnLRAibQVAAAibOrnYLQSIOrnOrnGGPSSGAPPPC(PEG60K)-NH2 [Agonist P404]	rat VPAC1 receptor (Rattus norvegicus, UniProt P30083)	EC50	µM	0.0234
C6-HSDAVFTDNYThRLRAibQVAAAibKYLQSIhRNhRhRYGGPSSGAPPPC(PEG40K)-NH2 (HSDAVFTDNYTXLRXQVAAXKYLQSIXNXXYGGPSSGAPPPC; non-natural residues) [Agonist P340]	rat VPAC1 receptor (Rattus norvegicus, UniProt P30083)	EC50	µM	0.117

Next:
### Prompt Supply reported EC50 belonging to this substance: C6-HSDAVFTDNYTOrnLRAibQVAAAibKYLQC(PEG40K)IOrnNOrnGGPSSGAPPPS (HSDAVFTDNYTXLRXQVAAXKYLQCIXNXGGPSSGAPPPS; non-natural residues) [Agonist P373]
### Response 0.35
